system: UO-31 renal; test: NCI tumour cell line growth inhibition, 48 h; in the data active means GI50 below about 0.43 µM; inactive means the rest
Your reply should match one of these outcome classes. true (1) (active), false (0) (inactive)

For orientation, consider the following solved cases.
>  <COMPOUND>
COc1cc(/C=C2\C(=O)Nc3ccc(N(C)C)cc32)cc(OC)c1OC

>  <MEASURED ON>
UO-31 renal

>  <CLASS NAME>
false (0)

$$$$
>  <COMPOUND>
CC[C@H](Nc1nc(C)nc(N)c1C#N)c1nc2cccc(NCc3ccc(C(=O)NO)cc3)c2c(=O)n1-c1ccccc1

>  <MEASURED ON>
UO-31 renal

>  <CLASS NAME>
false (0)

$$$$
>  <COMPOUND>
O=C(O)C1CCCCC1C(=O)O.[NH-]C1CCC1.[NH2-].[Pt+2] (stereo not drawn)

>  <MEASURED ON>
UO-31 renal

>  <CLASS NAME>
false (0)

$$$$
>  <COMPOUND>
COc1cc(C(=O)Nc2cc3c(cc2Oc2cc(C)cc(C)c2)C(=O)N(C)[C@@H](CC(=O)N(C)O)C(=O)N3)c(Br)c(OC)c1OC

>  <MEASURED ON>
UO-31 renal

>  <CLASS NAME>
true (1)

$$$$
>  <COMPOUND>
Nc1ccccc1C#C/C=C\C#Cc1ccccc1

>  <MEASURED ON>
UO-31 renal

>  <CLASS NAME>
false (0)

$$$$

Challenge: Could you kindly confirm the outcome this assay logged for C=C1C(=O)O[C@H]2[C@H]1CC/C(COC(=O)c1cc3cc(Cl)ccc3[nH]1)=C\CC[C@@]1(C)O[C@@H]21 ?
Response given: false (0)

Challenge: Could you kindly confirm the outcome this assay logged for COc1cc(-c2n/c(=C\c3c(O)[nH]c4ccc(Cl)cc34)cc3c2=Nc2ccccc2-3)ccc1F ?
Response given: false (0)

Challenge: Could you kindly confirm the outcome this assay logged for CCC[n+]1cc2cc(OC)c(OC)cc2c2c1-c1cc3c(cc1C2)OCO3 ?
Response given: false (0)

* * *

test system: HOP-92 NSCLC; experiment: NCI tumour cell line growth inhibition, 48 h
// rule not met strictly below 20 µM in TGI; rule met otherwise

For orientation, consider the following solved cases.
>  <COMPOUND>
CNCCn1c(=O)c2cc(OC)c(OC)cc2c2ccc3cc4c(cc3c21)OCO4

>  <CLASS NAME>
rule not met

$$$$
>  <COMPOUND>
Cc1ccc(C(=O)N/N=C(\N=Nc2ccccc2)c2ccc(N(C)C)cc2)cc1

>  <CLASS NAME>
rule met

$$$$
>  <COMPOUND>
COC(=O)/C(=N\NC(C)(C)C)C(C(=O)C(=O)Nc1cc(C)ccc1C)c1nc2ccccc2[nH]c1=O (stereo not given)

>  <CLASS NAME>
rule met

$$$$
>  <COMPOUND>
COc1ccc(Cn2cc3c(c2)-c2oncc2CC3)cc1

>  <CLASS NAME>
rule met

$$$$
>  <COMPOUND>
COc1cc(C(=O)Oc2ccc3c(c2)OCO3)cc(OC)c1OC

>  <CLASS NAME>
rule met

$$$$
>  <COMPOUND>
COc1ccc2cc(-c3c(-c4ccncc4)nc(-c4ccc(S(C)(=O)=O)cc4C)n3C)ccc2c1

>  <CLASS NAME>
rule met

$$$$

Challenge: Say whether COc1ccccc1CN=C1Nc2ccncc2S(=O)(=O)N1c1ccccc1 shows TGI of 20 µM or more.
Response given: rule met

Challenge: Say whether CCP(=O)(OC)C1=CCN(C(=O)OCC[Si](C)(C)C)CC1 (stereo not given) shows TGI of 20 µM or more.
Response given: rule met

Challenge: Say whether Cc1c(C(=O)NCCN2CCOCC2)cn2ncnc(Oc3ccc(NC(=O)Nc4ccc(Cl)c(C(F)(F)F)c4)cc3)c12 shows TGI of 20 µM or more.
Response given: rule not met

* * *

system: SW-620 colon; assay: NCI tumour cell line growth inhibition, 48 h
READOUT LABEL: TGI

The cases that follow already have their TGI on record.
>  <COMPOUND>
O=C(O)C1CCCCC1C(=O)O.[NH-]C1CCC1.[NH2-].[Pt+2] (stereo unspecified)

>  <TGI>
44.5 µM

$$$$
>  <COMPOUND>
NC(N)=NCCC1OC(=O)C2=C1c1c(O)ccc3nccc(c13)O2 (stereo unspecified)

>  <TGI>
> 100 µM

$$$$
>  <COMPOUND>
COC(=O)C1CCc2sc3ncnc(Nc4cn[nH]c4C(=O)Nc4ccc(CN5CCN(C)CC5)cc4)c3c21 (stereo unspecified)

>  <TGI>
1.58 µM

$$$$
>  <COMPOUND>
CSc1nc(NC(C)C)c2c(n1)Sc1nc3ccccc3n1N=C2

>  <TGI>
35.3 µM

$$$$
>  <COMPOUND>
C/C(=N\N(c1ccccc1)c1ccccc1)c1c(O)cc(C)oc1=O

>  <TGI>
> 100 µM

$$$$

Consider the additional compound presented here.
For this compound ( CC(CCC(=O)O)C(=O)O (stereo unspecified) ), measured TGI is > 100 µM

* * *

tested on: HOP-62 NSCLC; assay: NCI tumour cell line growth inhibition, 48 h
READOUT LABEL: GI50

The cases that follow already have their GI50 on record.
>  <COMPOUND>
CCCOc1ccc2nc(NC(=O)OC)[nH]c2c1

>  <MEASURED ON>
HOP-62 NSCLC

>  <GI50>
0.417 µM

$$$$
>  <COMPOUND>
COc1ccc2[nH]c(O)c(C(=Nc3ccc(N(C)C(=O)CN4CCN(C)CC4)cc3)c3ccccc3)c2c1

>  <MEASURED ON>
HOP-62 NSCLC

>  <GI50>
1.12 µM

$$$$
>  <COMPOUND>
COc1ccc(-c2ccc(-c3ccc(C(=N)N)cn3)o2)cc1

>  <MEASURED ON>
HOP-62 NSCLC

>  <GI50>
10.5 µM

$$$$
>  <COMPOUND>
CN1C(=O)N(C)C2C1NN=c1s/c(=C\c3ccc(F)cc3)c(=O)n12 (stereo not given)

>  <MEASURED ON>
HOP-62 NSCLC

>  <GI50>
3.48 µM

$$$$
>  <COMPOUND>
CCn1c(-c2nonc2N)nc2c(C#CC(C)(C)O)nc(OCCNC)cc21

>  <MEASURED ON>
HOP-62 NSCLC

>  <GI50>
7.81 µM

$$$$
>  <COMPOUND>
COc1ccc(C2=NN(C=O)C(c3cccc(Nc4ccnc5cc(Cl)ccc45)c3)C2)cc1 (stereo not given)

>  <MEASURED ON>
HOP-62 NSCLC

>  <GI50>
2.11 µM

$$$$

Item Cc1ccc2nc(-c3ccc(N(C)C)c(Br)c3)cn2c1 was tested on HOP-62 NSCLC; the reported GI50 is > 100 µM

Item COc1cc2cc(C(=O)N3C[C@H](CCl)c4c3cc(N)c3ccccc43)[nH]c2c(OC)c1OC was tested on HOP-62 NSCLC; the reported GI50 is 0.005 µM

Item COc1cc(-c2n/c(=C\c3c(O)[nH]c4ccc(Cl)cc34)cc3c2=Nc2ccccc2-3)ccc1F was tested on HOP-62 NSCLC; the reported GI50 is 1.17 µM

Item CCn1c2ccc(O)cc2c2c(C)c3c[n+](C)ccc3c(C)c21 was tested on HOP-62 NSCLC; the reported GI50 is 1.18 µM

* * *

Reported TGI values for a set of compounds
test system: RXF 393 renal; assay: NCI tumour cell line growth inhibition, 48 h
// note: answer is a bare numeric in µM

The cases that follow already have their TGI on record.
>  <COMPOUND>
OC1(c2ccccc2)OC(C#Cc2ccccc2)(c2ccccc2)c2ccccc21 (stereo not given)

>  <NUMBER>
5.58

$$$$
>  <COMPOUND>
C[C@]12CCC(=O)[C@@H](CCC3=CC(=O)C=CC3=O)[C@@H]1CCC2=O

>  <NUMBER>
5.43

$$$$
>  <COMPOUND>
COc1ccc(N2C(=O)[C@H]3CC(C)c4c([nH]c5ccccc45)[C@H]3C2=O)cc1 (stereo not given in full)

>  <NUMBER>
9.75

$$$$
>  <COMPOUND>
COC(=O)C1C(C(=O)OC)C2(OC(c3ccc(Cl)cc3)=CC2=O)C12OC(c1ccc(Cl)cc1)=CC2=O (stereo not given)

>  <NUMBER>
33.2

$$$$
>  <COMPOUND>
CC1=C(C(=O)Nc2cccc(Cl)c2)C(c2ccccc2F)C(C(=O)Nc2cccc(Cl)c2)=C(C)N1

>  <NUMBER>
22.4

$$$$

Consider the additional compound presented here.
Item CCn1c(-c2nonc2N)nc2c(C#CC(C)(C)O)nc(OCCNC)cc21 was tested on RXF 393 renal; the reported TGI is 11

* * *

tested on: UACC-62 melanoma; test: NCI tumour cell line growth inhibition, 48 h
Reported TGI values for a set of molecules
// note: answer is a bare numeric in µM

The cases that follow already have their TGI on record.
>  <MOLECULE>
CC(C)C(CC(=O)OCC(CO)OC(=O)CC(C(C)C)C(C)C)C(C)C (stereo not given)

>  <MEASURED ON>
UACC-62 melanoma

>  <TGI [µM]>
32.8

$$$$
>  <MOLECULE>
COC(=O)C1CCc2sc3ncnc(Nc4cn[nH]c4C(=O)Nc4ccc(CN5CCN(C)CC5)cc4)c3c21 (stereo not given)

>  <MEASURED ON>
UACC-62 melanoma

>  <TGI [µM]>
6.59

$$$$
>  <MOLECULE>
COC(=O)C1C(C(=O)OC)C2(OC(c3ccc(Cl)cc3)=CC2=O)C12OC(c1ccc(Cl)cc1)=CC2=O (stereo not given)

>  <MEASURED ON>
UACC-62 melanoma

>  <TGI [µM]>
32.8

$$$$
>  <MOLECULE>
COc1ccc2[nH]c(O)c(C(=Nc3ccc(N(C)C(=O)CN4CCN(C)CC4)cc3)c3ccccc3)c2c1

>  <MEASURED ON>
UACC-62 melanoma

>  <TGI [µM]>
16.4

$$$$

Consider the additional molecule presented here.
For this molecule ( COc1cc2c(=O)n(CCN)c3c4cc5c(cc4ccc3c2cc1OC)OCO5 ), measured TGI is 1.96
